# Target Under Test: human V2 receptor (Homo sapiens, UniProt P30518)
# Sequence (P30518 whole entry): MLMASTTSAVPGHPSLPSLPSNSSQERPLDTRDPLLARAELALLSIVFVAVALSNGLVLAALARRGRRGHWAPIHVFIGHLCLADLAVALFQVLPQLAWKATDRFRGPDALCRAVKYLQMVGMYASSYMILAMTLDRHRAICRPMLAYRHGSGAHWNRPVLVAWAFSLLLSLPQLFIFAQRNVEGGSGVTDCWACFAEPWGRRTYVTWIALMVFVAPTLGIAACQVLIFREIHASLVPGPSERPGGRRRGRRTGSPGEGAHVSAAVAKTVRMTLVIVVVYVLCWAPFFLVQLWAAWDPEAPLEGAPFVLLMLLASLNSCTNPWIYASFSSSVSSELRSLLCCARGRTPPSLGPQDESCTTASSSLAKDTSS
# Assay Remarks: V2 binding assay (3H-AVP displacement, HEK-293 membranes)
# Parameters: expressed in transfected cells; host or cells: HEK-293 (membranes)
# Condition Info: 1.0 μM compound; read-out: V2@1.0, % Inh
Label Yes when inhibition at 1 µM is at or above 5%; anything below gets No.

Check this compound for inhibition at 1 µM at or above 5%: `CC(C)c1ccccc1NC(=S)N1CCC(n2c(=O)n(CCCN3CCCCC3)c3ccccc32)CC1`
No

Check this compound for inhibition at 1 µM at or above 5%: `CC(C)(C)NC(=S)N1CCC(n2c(=O)n(CCCN3CCCCC3)c3ccccc32)CC1`
No

Check this compound for inhibition at 1 µM at or above 5%: `COc1ccccc1CNC(=S)N1CCC(n2c(=O)n(CCCN3CCCCC3)c3ccccc32)CC1`
No

Check this compound for inhibition at 1 µM at or above 5%: `CC1CCN(CCCn2c(=O)n(C3CCN(C(=S)NC(c4ccccc4)c4ccccc4)CC3)c3ccccc32)CC1`
Yes

Check this compound for inhibition at 1 µM at or above 5%: COC(=O)C(Cc1ccccc1)NC(=S)N1CCC(n2c(=O)n(CCCN3CCCC3)c3ccccc32)CC1 (stereo not shown)
No

Check this compound for inhibition at 1 µM at or above 5%: `CCCN(CCC)CCCn1c(=O)n(C2CCN(C(=S)NC(c3ccccc3)c3ccccc3)CC2)c2ccccc21`
Yes
